// values below are reported inhibition
experimentalTarget: Serine/threonine-protein kinase MARK1 (Homo sapiens) (UniProt Q9P0L2);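 further: reported values are mean percent inhibition of MARK1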
Sequence (Q9P0L2 whole entry, looked up): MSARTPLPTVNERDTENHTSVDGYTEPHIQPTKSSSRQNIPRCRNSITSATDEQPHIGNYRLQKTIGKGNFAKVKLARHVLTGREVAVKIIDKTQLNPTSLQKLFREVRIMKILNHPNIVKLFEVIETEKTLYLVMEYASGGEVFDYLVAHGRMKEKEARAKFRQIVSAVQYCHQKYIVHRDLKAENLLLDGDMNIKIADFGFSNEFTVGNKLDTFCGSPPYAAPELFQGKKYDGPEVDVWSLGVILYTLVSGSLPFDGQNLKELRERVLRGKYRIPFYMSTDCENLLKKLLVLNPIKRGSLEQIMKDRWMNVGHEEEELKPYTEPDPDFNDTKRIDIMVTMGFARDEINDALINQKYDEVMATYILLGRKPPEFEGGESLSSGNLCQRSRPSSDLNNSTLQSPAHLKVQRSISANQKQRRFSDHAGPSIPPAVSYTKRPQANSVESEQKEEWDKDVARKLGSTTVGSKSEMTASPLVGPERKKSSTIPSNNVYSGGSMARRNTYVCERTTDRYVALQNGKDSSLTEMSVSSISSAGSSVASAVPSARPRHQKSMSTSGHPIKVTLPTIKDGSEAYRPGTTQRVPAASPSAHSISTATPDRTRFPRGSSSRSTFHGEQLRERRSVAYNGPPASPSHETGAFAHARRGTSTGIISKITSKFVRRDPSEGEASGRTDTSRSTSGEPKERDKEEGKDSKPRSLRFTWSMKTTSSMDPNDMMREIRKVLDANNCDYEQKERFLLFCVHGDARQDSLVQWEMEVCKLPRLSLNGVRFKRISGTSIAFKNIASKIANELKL
testParameters: at 1 µM
The response must be a number in % with no trailing unit.

Illustrative cases are given below, each with its answer.
Query: What measured inhibition is associated with C#Cc1cccc(Nc2ncnc3ccc(OCCCCNCCS(C)(=O)=O)cc23)c1 on Serine/threonine-protein kinase MARK1 (Homo sapiens) (UniProt Q9P0L2)?
Result: 8.02

Query: Follow-up entry: NC(=O)c1cc(-c2ccc(F)cc2)cc(-c2ccncc2)c1N
Result: 4.17

For the next question, use this molecule.
Query: What measured inhibition is associated with c1ccc(Oc2ccc(Nc3ncc(-c4ccccc4)o3)cc2)cc1 on Serine/threonine-protein kinase MARK1 (Homo sapiens) (UniProt Q9P0L2)?
Result: 0.44
